assay: Half life in rat at 1 mg/kg, iv and 2 mg/kg, po; type: ADME, organism-based; settings: in vivo
VALUE KIND: half-life (min)
Return type: number; implicit unit min.

Return the recorded half-life value; entry: O=C(NCCN1CCCCC1)c1ccc(Oc2ncc(Cl)cc2NS(=O)(=O)c2ccc(Cl)c(C(F)(F)F)c2)cc1
54

###

target: Voltage-gated inwardly rectifying potassium channel KCNH2 (Homo sapiens, UniProt Q12809); assay: Inhibition of human ERG
Sequence (Q12809 whole entry): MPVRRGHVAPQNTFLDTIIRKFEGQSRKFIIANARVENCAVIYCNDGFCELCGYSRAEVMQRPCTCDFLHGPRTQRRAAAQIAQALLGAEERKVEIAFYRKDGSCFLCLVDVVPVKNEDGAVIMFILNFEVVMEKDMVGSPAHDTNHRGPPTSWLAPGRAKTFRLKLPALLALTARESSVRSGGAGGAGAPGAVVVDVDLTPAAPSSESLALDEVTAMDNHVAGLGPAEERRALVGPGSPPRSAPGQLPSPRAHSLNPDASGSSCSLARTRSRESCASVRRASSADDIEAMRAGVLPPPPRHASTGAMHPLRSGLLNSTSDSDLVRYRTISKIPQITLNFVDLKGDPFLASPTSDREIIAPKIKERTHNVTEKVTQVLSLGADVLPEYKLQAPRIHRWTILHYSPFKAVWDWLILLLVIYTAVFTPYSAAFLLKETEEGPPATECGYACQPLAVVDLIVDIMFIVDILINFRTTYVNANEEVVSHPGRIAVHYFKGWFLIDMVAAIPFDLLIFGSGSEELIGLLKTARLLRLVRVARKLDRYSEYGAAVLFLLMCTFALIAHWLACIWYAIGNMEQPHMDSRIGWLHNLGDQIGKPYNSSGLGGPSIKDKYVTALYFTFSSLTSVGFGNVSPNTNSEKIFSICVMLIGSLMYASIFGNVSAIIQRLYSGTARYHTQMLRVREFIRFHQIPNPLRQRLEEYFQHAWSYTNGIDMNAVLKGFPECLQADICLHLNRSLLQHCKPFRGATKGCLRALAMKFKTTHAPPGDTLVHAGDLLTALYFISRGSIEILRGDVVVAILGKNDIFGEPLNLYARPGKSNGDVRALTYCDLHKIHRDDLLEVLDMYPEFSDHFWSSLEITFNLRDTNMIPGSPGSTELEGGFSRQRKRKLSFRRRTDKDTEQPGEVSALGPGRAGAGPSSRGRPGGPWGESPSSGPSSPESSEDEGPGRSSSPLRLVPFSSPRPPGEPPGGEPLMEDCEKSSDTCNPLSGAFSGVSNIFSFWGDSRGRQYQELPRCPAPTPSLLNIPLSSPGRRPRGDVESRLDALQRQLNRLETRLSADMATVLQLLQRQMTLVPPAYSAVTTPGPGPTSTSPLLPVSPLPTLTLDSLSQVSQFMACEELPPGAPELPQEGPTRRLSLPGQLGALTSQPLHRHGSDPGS
VALUE KIND: pIC50
Please express pIC50 as -log10 of the molar concentration.

For COc1cc(C(=O)NCCN2CCCC2)ccc1Oc1ccc(Cl)cc1NS(=O)(=O)c1ccc(Cl)c(C(F)(F)F)c1 , write its pIC50.
4.60

###

test: Volume of distribution at steady state in rat at 1 mg/kg, iv and 1.5 mg/kg, po; format: ADME, organism-based; details: in vivo, read-out: Vdss
VALUE KIND: Vd (L/kg)
The response must be a number in L/kg with no trailing unit.

Return Vd for the following molecule: COc1cc(C(=O)NCCN2CCCC2)ccc1Oc1ccc(Cl)cc1NS(=O)(=O)c1ccc(Cl)c(C(F)(F)F)c1
2.7

###

test: Cmax in rat at 1 mg/kg, iv and 1.5 mg/kg, po; type: ADME, organism-based; conditions: in vivo
VALUE KIND: Cmax (ng/mL)
Respond with the bare value in ng/mL.

Write down Cmax measured for item COc1cc(C(=O)NCCN2CCCC2)ccc1Oc1ccc(Cl)cc1NS(=O)(=O)c1ccc(Cl)c(C(F)(F)F)c1
652

###

Reported values of pKi for individual entries
target: C-C chemokine receptor type 2 (Homo sapiens, UniProt P41597); assay: Antagonist activity at human CCR2 receptor expressed in CHO cells assessed as inhibition of MCP1-induced [35S]-GTPgammaS binding after 3 hrs in presence of 5% human serum albumin; format: functional, cell-based
Sequence (P41597 whole entry): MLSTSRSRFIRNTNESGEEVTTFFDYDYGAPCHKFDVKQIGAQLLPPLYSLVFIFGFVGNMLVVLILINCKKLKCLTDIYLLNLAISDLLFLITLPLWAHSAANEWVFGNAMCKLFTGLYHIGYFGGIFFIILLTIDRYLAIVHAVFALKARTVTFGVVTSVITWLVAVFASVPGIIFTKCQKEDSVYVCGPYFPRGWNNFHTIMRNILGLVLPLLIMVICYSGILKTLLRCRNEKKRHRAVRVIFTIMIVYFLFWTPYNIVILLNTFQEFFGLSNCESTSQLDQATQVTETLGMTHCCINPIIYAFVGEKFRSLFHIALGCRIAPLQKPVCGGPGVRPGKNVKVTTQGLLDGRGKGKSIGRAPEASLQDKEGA
In plain terms, pKi is the concentration in mol/L turned into minus its base-10 logarithm.

Field: example entries. Status: answers known.
1) O=C(NCCN1CCCCC1)c1ccc(Oc2ncc(Cl)cc2NS(=O)(=O)c2ccc(Cl)c(Cl)c2)cc1 ... 7.70
2) O=C(NCCN1CCCCC1)c1ccccc1Oc1ncc(Cl)cc1NS(=O)(=O)c1ccc(Cl)c(Cl)c1 ... 5.80
3) O=C(NCCN1CCCCC1)c1cccc(Oc2ncc(Cl)cc2NS(=O)(=O)c2ccc(Cl)c(Cl)c2)c1 ... 5.90

Please report the measured pKi for O=C(NCCN1CCNCC1)c1cccc(Oc2ncc(Cl)cc2NS(=O)(=O)c2ccc(Cl)c(Cl)c2)c1 tested on C-C chemokine receptor type 2 (Homo sapiens, UniProt P41597).
5.60

GET pKi | system: C-C chemokine receptor type 2 (Homo sapiens, UniProt P41597) | item: O=C(NCCN1CCCC1)c1ccccc1Oc1ncc(Cl)cc1NS(=O)(=O)c1ccc(Cl)c(Cl)c1
5.60

Specify the recorded pKi for O=C(NCCN1CCCC1)c1ccc(Oc2ncc(Cl)cc2NS(=O)(=O)c2ccc(Cl)c(Cl)c2)cc1 , system: C-C chemokine receptor type 2 (Homo sapiens, UniProt P41597).
7.20

For C-C chemokine receptor type 2 (Homo sapiens, UniProt P41597), give the measured pKi of the entry O=C(NCCN1CCNCC1)c1ccc(Oc2ncc(Cl)cc2NS(=O)(=O)c2ccc(Cl)c(Cl)c2)cc1
6.60

Report the value of pKi obtained on C-C chemokine receptor type 2 (Homo sapiens, UniProt P41597) for Cc1ncccc1Oc1ncc(Cl)cc1NS(=O)(=O)c1ccc(Cl)c(Cl)c1 .
5.90

Look up C-C chemokine receptor type 2 (Homo sapiens, UniProt P41597) data: pKi of O=C(NCCN1CCCC1)c1cccc(Oc2ncc(Cl)cc2NS(=O)(=O)c2ccc(Cl)c(Cl)c2)c1 , then report it.
6.00
